This collection of values is drawn from PubChem BioAssay.

MEASUREMENT_PROTOCOL: OD615 S. cerevisiae growth inhibition, permissive medium, pilot counter-assay, permissive growth control for S. cerevisiae lifespan shortening project (AID 705)
CONDITIONS: OD615, 24 h, at 10 µM, hits give high values
Documented growth inhibition across a set of compounds

| COMPOUND | VALUE_UNITS | growth inhibition |
| --- | --- | --- |
| CC(C)CC(NC(=O)c1ccco1)C(=O)Nc1ccc2c(c1)OCCO2 (configuration not stated) | % | 6.21 |
| CCN1C(=O)c2ccccc2S(=O)c2ccc(C(=O)N3CCCC3)cc21 (configuration not stated) | % | -3.58 |
| CNC(=O)CN1C(=O)CSc2ncccc21 | % | 10.1 |
| O=C(Cn1c(=O)sc2ccccc21)N1CCOCC1 | % | -1.21 |
| O=C(C1CC(c2ccc(F)cc2)=NO1)N1CCN(Cc2ccccc2)CC1 (configuration not stated) | % | -0.77 |
| CCc1nnc(NC(=O)C2CCCCC2)s1 | % | 5.8 |
| Cc1cc(NC(=O)CN2CCN(c3ncccn3)CC2)no1 | % | -7.78 |
| Cc1ccc(S(=O)(=O)c2nc(-c3ccc(F)cc3)oc2SCC(N)=O)cc1 | % | -20.8 |
| c1ccc(CSc2nnc(-c3ccncc3)o2)cc1 | % | -3.77 |
| Cc1nnc(NC(=O)CCCCCN2C(=O)C3C4C=CC(C4)C3C2=O)s1 (configuration not stated) | % | -10.6 |
| CCc1cccc(C)c1NC(=O)C1CCCO1 (configuration not stated) | % | -5.15 |
| Cc1nc(N2CCN(Cc3ccc4c(c3)OCO4)CC2)c2oc3ccccc3c2n1 | % | -0.195 |
